test system: LOX IMVI melanoma; test: NCI tumour cell line growth inhibition, 48 h
Property: TGI (µM)
Provide the reading as a plain figure in µM.

# input Please state recorded TGI (tested on LOX IMVI melanoma) of O=C1CCc2c(sc3ncnc(Nc4cccc(Br)c4)c23)C1
# output 12.9

# input # value lookup — system LOX IMVI melanoma, readout TGI, item CCN(CC)Cc1cc(Nc2c3ccc(Cl)cc3nc3c(C)cccc23)ccc1O
# output 2.61

# input Item CCCCOc1nc2ccccc2cc1C1CNC(=O)c2ccccc2N1 (stereo not given) with LOX IMVI melanoma - TGI?
# output 15.4

###

system: SR leukemia; assay: NCI tumour cell line growth inhibition, 48 h; in the data active means GI50 below about 0.43 µM; inactive means the rest
*1 amine or outer side, *2 acyl side, *3 side chain or, on linkers, in order; H or OH if unused. Where a SMILES comes first, the peptide text is derived from it. [ ]: non-standard residue; d: D form. The star is where a group is joined. X12 = NCCCCC(N[*:1])C(=O)CN1CCCC1C(=O)[*:2]; Pentadecanoyl = CCCCCCCCCCCCCCC(=O)*
A correct response names exactly one class from active, inactive

# input Dear all, I need the recorded test outcome for Cc1cccc(Cc2cnc(NC(=O)/C=C/c3ccco3)s2)c1 , thank you.
# output active

# input Outcome logged for O=C(CN1CCN(c2cc3c(cc2F)c(=O)c(C(=O)O)cn3C2CC2)CC1)Nc1ccc(C(=O)/C=C/c2ccccc2)cc1 in this assay:
# output inactive

# input Recorded test call requested for COc1ccc(C2C3=C(COC3=O)N(CCO)c3cc4c(cc32)CCC4)cc1OC (stereo not drawn)
# output active

# input Would you mind telling me which call this test gave O=C(/C=C(/C=C/c1csc2ccccc12)OB(F)F)/C=C/c1csc2ccccc12 ?
# output active

# input Hey, what did the test say about CCCCCCCCCCCCCCC(=O)NC(CCCCN)C(=O)CN1CCCC1C(=O)NCC(=O)NC(Cc1ccccc1)C(=O)N1CCCC1C(=O)NC(CO)C(=O)NC(Cc1ccc(O)cc1)C(=O)NC(CCCCN)C(=O)NC(CC(C)C)C(=O)NC(CCCN=C(N)N)C(=O)N1CCCC1C(=O)NCC(N)=O (stereo not drawn) (Pentadecanoyl-[X12]GFPSYKLRPG-NH2; configuration not given here) ?
# output inactive

# input How was Cc1cncc2cccc(S(=O)(=O)N3CCCNC[C@@H]3C)c12 classified in this test?
# output inactive

# input Query: recorded result category for O=C(N/N=C\c1cc(Br)cc(Br)c1O)N/N=C/c1cc(Br)cc(Br)c1O in this test
# output inactive

# input Which outcome did this test record for the compound Cn1cc(C2=C(c3cccc(Cl)c3)C(=O)NC2=O)c2ccccc21 ?
# output inactive
